Just for reference, patent US20260008852A1 is where these values come from.

assayed-system: T1, B7-H3 on CHO-K1 cells stably transfected with B7-H3 (GenScript #M00536) (UniProt Q5ZPR3 29-534, limits assumed)
T1 sequence (looked up): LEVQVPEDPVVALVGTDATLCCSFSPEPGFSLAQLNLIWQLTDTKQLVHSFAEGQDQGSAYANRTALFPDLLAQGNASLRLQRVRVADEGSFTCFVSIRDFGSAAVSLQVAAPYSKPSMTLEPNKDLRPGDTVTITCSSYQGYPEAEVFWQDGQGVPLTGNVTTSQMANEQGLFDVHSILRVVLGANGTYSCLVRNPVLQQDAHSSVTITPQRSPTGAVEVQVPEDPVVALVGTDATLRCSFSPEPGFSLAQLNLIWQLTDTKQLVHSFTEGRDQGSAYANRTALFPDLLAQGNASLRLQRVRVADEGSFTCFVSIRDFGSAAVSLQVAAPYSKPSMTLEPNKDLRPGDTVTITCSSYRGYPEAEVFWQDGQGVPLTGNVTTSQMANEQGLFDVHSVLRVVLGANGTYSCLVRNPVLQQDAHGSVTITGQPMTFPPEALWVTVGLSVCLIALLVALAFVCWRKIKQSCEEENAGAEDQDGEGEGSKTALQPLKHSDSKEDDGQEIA
procedure-text: cell-based or functional assay
recorded-endpoint: ADCC reporter assay, EC50 Value, CHOK1/B7-H3 cells

- 40633p1.2.C11 IgG (antibody, V domains shown) VH: EVQLLESGGGLVQPGGSLRLSCAASGFTFSSYWMSWVRQAPGKGLEWVAGINRNGGSTYYADSVKGRFTISRDNSENTLYLQVNSLRAEDTAVYYCARWNDYDIMDVWGQGTTVTVSS VL: QSVLTQPSSASGTPGQRVTISCSGSSSNVGRRAVNWYQQLPGTAPKLLISNSQRPSGVPDRFSGSKSGTSASLAISGLQSEDEADYYCATWDASLNSWVFGGGTKLTVL: ~1.56 µg/mL
- 40511p1.2.A12 IgG (antibody, V domains shown) VH: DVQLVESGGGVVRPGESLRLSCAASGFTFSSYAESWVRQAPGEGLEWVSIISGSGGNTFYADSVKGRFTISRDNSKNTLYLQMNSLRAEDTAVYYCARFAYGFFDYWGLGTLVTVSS VL: EIVLTQSPGTLSVSPGERATLSCRASQTVGSKLAWYQQKPGQPPSLLIYDASTRATGIPDRFSGSGSGTDFTLTISSLQSEDFAVYYCQQYRNWPPLTFGGGTKVEIK: 0.0352 µg/mL
- 40633p1.2.E1 IgG (antibody, V domains shown) VH: EVQLLESGRGLVQPGGSLRLSCAASGFTVSYYGMSWVRQAPGKGLEWVSVIKQDGSEEYYADSVKGRFTISRDNSKNTLYLQMNSLRAEDTAVYYCARHWNDYSNGMNVWGQGTTVTVSS VL: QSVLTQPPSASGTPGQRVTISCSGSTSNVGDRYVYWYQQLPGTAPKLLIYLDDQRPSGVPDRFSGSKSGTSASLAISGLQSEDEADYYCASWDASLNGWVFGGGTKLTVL: 0.031 µg/mL
